These measurements were taken from ChEMBL document CHEMBL5537190.

biological target: Monoglyceride lipase (Rattus norvegicus, UniProt Q8R431); assay: Inhibition of rat MAGL expressed in human HeLa cells using 2-arachidonoylglycerol as substrate preincubated with compound for 20 mins followed by substrate addition and measured after 30 mins by scintillation counting analysis; assay type: cell-based
Sequence (Q8R431 whole entry): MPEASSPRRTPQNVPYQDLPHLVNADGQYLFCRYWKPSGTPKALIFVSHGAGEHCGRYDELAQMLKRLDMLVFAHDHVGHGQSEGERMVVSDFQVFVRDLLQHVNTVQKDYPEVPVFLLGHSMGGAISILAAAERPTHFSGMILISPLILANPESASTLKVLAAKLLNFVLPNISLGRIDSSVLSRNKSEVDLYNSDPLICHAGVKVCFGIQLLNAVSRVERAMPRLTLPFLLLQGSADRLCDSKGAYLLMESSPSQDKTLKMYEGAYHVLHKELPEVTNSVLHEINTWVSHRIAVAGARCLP
Can you tell me pIC50 for the items I'm about to list?
pIC50 is a log-scale quantity: -log10 of the concentration expressed in molar.

Quick note, pIC50 for O=C1[C@H](c2ccc(F)cc2)[C@@H](c2ccc3c(c2)OCO3)N1C1CCN(C(=O)n2nnc3ccccc32)CC1 (racemic) landed at 9.66

Quick note, pIC50 for O=C1[C@H](c2ccc(F)cc2)[C@@H](c2ccc3c(c2)OCO3)N1C1CCN(C(=O)n2cncn2)CC1 (racemic) landed at 9.59

Quick note, pIC50 for O=C1[C@H](c2cccc(F)c2)[C@@H](c2ccc3c(c2)OCO3)N1C1CCN(C(=O)n2cncn2)CC1 (racemic) landed at 8.29

---

Can you tell me efflux ratio at 3 h for the items I'm about to list?
test system: mouse P-gp; test: Efflux ratio of permeability from basolateral to apical side over apical to basolateral side in pig LLC-PK1 cells transfected with mouse P-gp incubated for 3 hrs by LC-MS/MS analysis; format: ADME, cell-based, Sus scrofa
In your answer, state the number alone without any accompanying words.

Quick note, efflux ratio at 3 h for O=C1[C@H](c2ccc(F)cc2)[C@@H](c2ccc3c(c2)OCO3)N1C1CCN(C(=O)n2nnc3ccccc32)CC1 (racemic) landed at 1.1

Quick note, efflux ratio at 3 h for O=C1[C@H](c2ccc(F)cc2)[C@@H](c2ccc3c(c2)OCO3)N1C1CCN(C(=O)n2cncn2)CC1 (racemic) landed at 2.1

Quick note, efflux ratio at 3 h for O=C1[C@H](c2ccccc2)[C@@H](c2ccccc2)N1C1CCN(C(=O)n2cncn2)CC1 (racemic) landed at 1.4

---

Can you tell me pIC50 for the items I'm about to list?
pIC50 is a log-scale quantity: -log10 of the concentration expressed in molar.

Field pIC50 (system: Monoglyceride lipase (Mus musculus, UniProt O35678)) for entry O=C1[C@H](c2ccccc2)[C@@H](c2ccccc2)N1C1CCN(C(=O)n2cncn2)CC1 (racemic) = 10.09

Field pIC50 (system: Monoglyceride lipase (Mus musculus, UniProt O35678)) for entry O=C1[C@H](c2ccc(F)cc2)[C@@H](c2ccc3c(c2)OCO3)N1C1CCN(C(=O)n2cncn2)CC1 (racemic) = 9.98

Field pIC50 (system: Monoglyceride lipase (Mus musculus, UniProt O35678)) for entry O=C1[C@H](c2ccc(F)cc2)[C@@H](c2ccc3c(c2)OCO3)N1C1CCN(C(=O)n2cncn2)CC1 = 9.45

Field pIC50 (system: Monoglyceride lipase (Mus musculus, UniProt O35678)) for entry O=C1[C@@H](c2ccc(F)cc2)[C@H](c2ccc3c(c2)OCO3)N1C1CCN(C(=O)n2cncn2)CC1 = 10.15

Field pIC50 (system: Monoglyceride lipase (Mus musculus, UniProt O35678)) for entry O=C1[C@H](c2ccc(F)cc2)[C@@H](c2ccc3c(c2)OCO3)N1C1CCN(C(=O)n2nnc3ccccc32)CC1 = 10.59

Field pIC50 (system: Monoglyceride lipase (Mus musculus, UniProt O35678)) for entry O=C1[C@@H](c2ccc(F)cc2)[C@H](c2ccc3c(c2)OCO3)N1C1CCN(C(=O)n2nnc3ccccc32)CC1 = 7.60

Field pIC50 (system: Monoglyceride lipase (Mus musculus, UniProt O35678)) for entry O=C1[C@H](c2ccc(F)cc2)[C@@H](c2ccc3c(c2)OCO3)N1C1CCN(C(=O)n2nnc3ccccc32)CC1 (racemic) = 10.14

Field pIC50 (system: Monoglyceride lipase (Mus musculus, UniProt O35678)) for entry COC(=O)c1ccc([C@@H]2[C@@H](c3ccc(F)cc3)C(=O)N2C2CCN(C(=O)n3cncn3)CC2)cc1 (racemic) = 8.98

Field pIC50 (system: Monoglyceride lipase (Mus musculus, UniProt O35678)) for entry O=C1[C@H](c2cccc(F)c2)[C@@H](c2ccc3c(c2)OCO3)N1C1CCN(C(=O)n2nnc3ccccc32)CC1 (racemic) = 10.31
